system: G119S AChE1 (Culex pipiens, UniProt Q86GC8, G247S)
testSettings: dissociation constant of enzyme-inhibitor complex; five independent replicates; read-out: Kic G119S
Entries and their pKi values follow.
Bear in mind: pKi is minus log10 of a mol/L concentration; give just that figure.

Consider the reported pKi for these compounds:
compound	observationType	recordedResult
COc1ccc(N2C(=O)NC(=O)C(=Cc3ccc(C)o3)C2=O)cc1 [PTF-10]	pKi	4.19
Cc1ccc(C=C2C(=O)NC(=O)N(c3ccc(Cl)cc3)C2=O)o1 [PTF-20]	pKi	5.25
Cc1cccc(N2C(=O)C(=Cc3ccc(C)o3)C(=O)NC2=S)c1 [PTF-25]	pKi	4.60
Cc1ccc(C=C2C(=O)NC(=O)N(c3ccccc3)C2=O)o1 [PTF-3]	pKi	4.66

In plain terms, COc1cccc(N2C(=O)C(=Cc3ccc(C)o3)C(=O)NC2=S)c1 [PTF-29] has a documented pKi of 5.05

In plain terms, Cc1ccc(C=C2C(=O)N(C)C(=O)N(C)C2=O)o1 [PTF-39] has a documented pKi of 4.38

###

System: C. pipiens Slab strain larvae
measurementNotes: Larval bioassay, Slab strain (OP-susceptible)
testSettings: fourth-instar larvae, 24 hours exposure, 300 µM
Rule: measured Mortality at 300 µM, Slab below 10% gets 1; anything equal to or greater than 10% gets 0.

Examples from the recorded data:
compound	cat
Cc1ccc(C=C2C(=O)NC(=S)N(c3cccc(Cl)c3)C2=O)o1	0
COc1cccc(N2C(=O)NC(=O)C(=Cc3ccc(C)o3)C2=O)c1	0
O=C1NC(=O)N(c2ccccc2)C(=O)C1=Cc1ccc(-c2cccc(C(=O)O)c2)o1	1
CC(C)(C)N=C1NC(=O)C(=Cc2ccco2)C(=O)N1c1ccccc1	1
O=C1NC(=O)N(c2ccccc2)C(=O)C1=Cc1ccc(Br)o1	1

Given "CN1C(=O)C(=Cc2ccc(N3CCCCC3)o2)C(=O)N(C)C1=O" , is recorded Mortality at 300 µM, Slab strictly lower than 10%?
0

Given "Cc1ccc(C=C2C(=O)NC(=O)N(CCc3ccc(F)cc3)C2=O)o1" , is recorded Mortality at 300 µM, Slab strictly lower than 10%?
1

Given CCOP(=O)(OCC)Oc1ccc([N+](=O)[O-])cc1 [Paraoxon, reference compound] , is recorded Mortality at 300 µM, Slab strictly lower than 10%?
0

Given "CN1C(=O)C(=Cc2ccc(-c3cccc(C(=O)O)c3)o2)C(=O)N(C)C1=O" , is recorded Mortality at 300 µM, Slab strictly lower than 10%?
1

Given "O=C1NC(=O)N(c2ccccc2)C(=O)C1=Cc1ccc(N2CCCCC2)o1" , is recorded Mortality at 300 µM, Slab strictly lower than 10%?
1

Given "Cc1ccc(C=C2C(=O)NC(=S)N(CCc3ccc(F)cc3)C2=O)o1" , is recorded Mortality at 300 µM, Slab strictly lower than 10%?
1

Given "COc1ccc(N2C(=O)C(=Cc3ccc(C)o3)C(=O)NC2=S)cc1" , is recorded Mortality at 300 µM, Slab strictly lower than 10%?
0

Given "Cc1ccc(C=C2C(=O)NC(=O)N(c3ccccc3)C2=O)s1" , is recorded Mortality at 300 µM, Slab strictly lower than 10%?
0

Given CCOP(=O)(OCC)Oc1nc(Cl)c(Cl)cc1Cl [Chlorpyrifos-oxon, reference compound] , is recorded Mortality at 300 µM, Slab strictly lower than 10%?
0

Given "CCc1ccc(N2C(=O)C(=Cc3ccc(C)o3)C(=O)NC2=S)cc1" , is recorded Mortality at 300 µM, Slab strictly lower than 10%?
0

Given "Cc1ccc(C=C2C(=O)NC(=O)N(c3ccc(Cl)cc3)C2=O)o1" , is recorded Mortality at 300 µM, Slab strictly lower than 10%?
0

Given "Cc1ccc(C=C2C(=O)NC(=O)N(c3ccc(C(=O)O)cc3)C2=O)o1" , is recorded Mortality at 300 µM, Slab strictly lower than 10%?
1

Given "C=CCN1C(=O)NC(=O)C(=Cc2ccc(C)o2)C1=O" , is recorded Mortality at 300 µM, Slab strictly lower than 10%?
1

Given "O=C1NC(=O)N(c2ccccc2)C(=O)C1=Cc1cccs1" , is recorded Mortality at 300 µM, Slab strictly lower than 10%?
1

Given "CCN(CC)c1ccc(C=C2C(=O)N(C)C(=O)N(C)C2=O)o1" , is recorded Mortality at 300 µM, Slab strictly lower than 10%?
1

###

Entries and their IC50 values follow.
system: WT AChE1 (Culex pipiens)
measurementNotes: AChE assay (Ellman), dose-response on recombinant WT AChE1
Format: biochemical
Design: made in house; host or cells: Drosophila S2 cells
testSettings: recombinant wild-type C. pipiens AChE1; 15 min incubation; acetylthiocholine; read-out: IC50 WT
In your response, the unit should come after the numeric value.

compound	IC50
C=CCN1C(=O)NC(=O)C(=Cc2ccc(C)o2)C1=O [PTF-1]	3 µM

In plain terms, Cc1cccc(N2C(=O)NC(=O)C(=Cc3ccc(C)o3)C2=O)c1 [PTF-6] has a documented IC50 of 4 µM

###

system: WT AChE1 (Culex pipiens)
measurementNotes: AChE assay (Ellman), dose-response on recombinant WT AChE1
Format: biochemical
Design: made in house; host or cells: Drosophila S2 cells
Experimental: Production of C. pipiens WT and mutated AChE1s in Drosophila S2 cells was already described. The chemical library (ChemBridge, 3,000 compounds) screening was performed in duplicate on G119S recombinant AChE1. Chemicals were made soluble in ethanol or dimethylsulphoxide (DMSO), and then diluted at 300 µM in ethanol for storage. […] IC50 was also measured on AChE1 from susceptible and resistant mosquito larvae extracts.
observationType: pIC50
Bear in mind: pIC50 is minus log10 of a mol/L concentration; give just that figure.

compound	pIC50
CNC(=O)Oc1ccccc1OC(C)C [Propoxur, reference compound]	6.52

Moving on to another compound below.
So the reported pIC50 for COP(=O)(OC)OC=C(Cl)Cl [Dichlorvos, reference compound] , on WT AChE1 (Culex pipiens), turned out to be 6.35

###

Entries and their Mortality at 300 µM, SR values follow.
Test system: C. pipiens SR strain larvae
measurementNotes: Larval bioassay, SR strain (OP-resistant)
testSettings: fourth-instar larvae, 24 hours exposure, 300 µM

Consider the reported Mortality at 300 µM, SR for these compounds:
compound	Mortality at 300 µM, SR
Cc1ccc(C=C2C(=O)NC(=S)N(CCc3ccc(F)cc3)C2=O)o1 [PTF-34]	0%
CN1C(=O)C(=Cc2ccc(N3CCOCC3)o2)C(=O)N(C)C1=O [PTF-50]	0%

In plain terms, O=C1NC(=O)N(c2ccccc2)C(=O)C1=Cc1ccc(-c2cccc(C(=O)O)c2)s1 [PTF-69] has a documented Mortality at 300 µM, SR of 0%

In plain terms, Cc1cccc(N2C(=O)NC(=O)C(=Cc3ccc(C)o3)C2=O)c1 [PTF-6] has a documented Mortality at 300 µM, SR of 0%

In plain terms, Cc1ccc(C=C2C(=O)NC(=O)N(c3ccc(F)cc3)C2=O)o1 [PTF-17] has a documented Mortality at 300 µM, SR of 90%

###

Entries and their Mortality at 300 µM, SR values follow.
Test system: C. pipiens SR strain larvae
measurementNotes: Larval bioassay, SR strain (OP-resistant)
testSettings: fourth-instar larvae, 24 hours exposure, 300 µM
// return numeric value only (unit: %, not printed)

molecule	recordedResult
O=C1NC(=O)N(c2ccccc2)C(=O)C1=Cc1ccc(Br)o1 [PTF-55]	0
Cc1ccc(C=C2C(=O)NC(=O)N(c3ccc(C(=O)O)cc3)C2=O)o1 [PTF-15]	0
Cc1ccc(C=C2C(=O)NC(=S)N(c3ccc(F)cc3)C2=O)o1 [PTF-33]	77
O=C1NC(=O)N(c2ccccc2)C(=O)C1=Cc1ccc(-c2ccccc2C(=O)O)o1 [PTF-59]	0

In plain terms, O=C1NC(=O)N(c2ccccc2)C(=O)C1=Cc1ccc(N2CCCCC2)o1 [PTF-61] has a documented Mortality at 300 µM, SR of 0

###

Tested on: C. pipiens SR strain larvae
measurementNotes: Larval bioassay, SR strain (OP-resistant)
testSettings: fourth-instar larvae, 24 hours exposure, 300 µM
observationType: Mortality at 300 µM, SR (%)
// return numeric value only (unit: %, not printed)

CN1C(=O)C(=Cc2ccc(N3CCCCC3)o2)C(=O)N(C)C1=O 0
COc1cccc(N2C(=O)C(=Cc3ccc(C)o3)C(=O)NC2=S)c1 63
COc1cccc(N2C(=O)NC(=O)C(=Cc3ccc(C)o3)C2=O)c1 88
Cc1ccc(C=C2C(=O)NC(=S)N(c3ccc(Br)cc3)C2=O)o1 35
Cc1ccc(C=C2C(=O)NC(=O)N(c3ccccc3C)C2=O)o1 0
Cc1ccc(C=C2C(=O)NC(=O)N(c3ccccc3)C2=O)s1 95
Cc1ccc(C=C2C(=O)NC(=S)N(c3ccc(Cl)cc3)C2=O)o1 49
N=C1NC(=O)C(=Cc2ccco2)C(=O)N1c1ccccc1 0
Cc1ccc(C=C2C(=O)NC(=O)N(Cc3ccco3)C2=O)o1 100
O=C1NC(=O)N(c2ccccc2)C(=O)C1=Cc1ccc(N2CCOCC2)o1 0

In plain terms, "Cc1ccc(C=C2C(=O)NC(=S)N(c3cccc(Cl)c3)C2=O)o1" has a documented Mortality at 300 µM, SR of 40

In plain terms, "CN1C(=O)C(=Cc2ccco2)C(=O)N(C)C1=O" has a documented Mortality at 300 µM, SR of 90

In plain terms, "CN1C(=O)C(=Cc2ccc(-c3ccc(S(N)(=O)=O)cc3)o2)C(=O)N(C)C1=O" has a documented Mortality at 300 µM, SR of 0

In plain terms, "CN1C(=O)C(=Cc2ccc(Sc3ccccc3)o2)C(=O)N(C)C1=O" has a documented Mortality at 300 µM, SR of 0

In plain terms, "CC(C)(C)N=C1NC(=O)C(=Cc2ccco2)C(=O)N1c1ccccc1" has a documented Mortality at 300 µM, SR of 0
